# % intact compound remaining after incubation, Human plasma listing for each entry below
Conditions: 24 h incubation, 37° C.
RECORDED ENDPOINT: % intact compound remaining after incubation, Human plasma

>>> measurement("CCCCCC(=O)N[C@H]1CSCc2cc(CSCCNC(=O)CN3CCN(CC(=O)O)CCN(CC(=O)O)CCN(CC(=O)O)CC3)cc(c2)CSC[C@@H](C(=O)O)NC(=O)[C@H](Cc2ccccc2)NC(=O)[C@H](CCC(N)=O)NC(=O)[C@H]([C@@H](C)O)NC(=O)[C@@H]2CCCN2C(=O)[C@@H]2CCCN2C1=O [3BP-3624]")
"100% (24 h)"
>>> measurement("CCCCCC(=O)N[C@H]1CSCc2cccc(c2)CSC[C@@H](C(=O)N[C@@H](CCCCNC(=O)CN2CCN(CC(=O)O)CCN(CC(=O)O)CCN(CC(=O)O)CC2)CC(=O)O)NC(=O)[C@H](Cc2ccccc2)NC(=O)[C@H](CCC(N)=O)NC(=O)[C@H]([C@@H](C)O)NC(=O)[C@@H]2CCCN2C(=O)[C@@H]2CCCN2C1=O")
"100% (24 h)"
